Target: TRPM7 (Mus musculus)
Construct: expressed in transfected cells; host or cells: HEK-293 tSA (HEK-293T) cells, transient transfection with Lipofectamine 2000
Assay: PI uptake cell death assay in TRPM7-expressing HEK-293 cells (type of assay from Example 1)
Assay type: cell-based, murine
Settings: 5 μM; Table X; the lower the number, the more potent in protecting against cell death
Lab note: anything with Normalized ratio of PI uptake (5 μM) below 0.04 is marked true (1); values at 0.04 or higher are marked false (0).

Ask: Just wondering, is Normalized ratio of PI uptake (5 μM) of Cc1cccc2sc(C3NCCc4c(F)cccc43)c(Cl)c12 (stereo not shown) below 0.04?
Result: true (1)

Ask: Note, next up: CCCc1c(Cc2ccc(Cl)c(Cl)c2)c(=O)[nH]c2cc(OC)cc(OC)c12
Result: false (0)

Ask: And the next one, COc1cc2c(cc1OC)C(c1sc3cc(OC)c(OC)cc3c1Cl)NCC2 (stereo not shown) ?
Result: true (1)

Ask: Then what about the compound CN1CCc2cc(F)ccc2C1c1sc2ccccc2c1Cl (stereo not shown) ?
Result: false (0)

Ask: Repeat with COc1ccc2sc(C3=NCCc4cc(OC)c(OC)cc43)c(Cl)c2c1
Result: true (1)

Ask: Query Cc1ccc(N(Cc2ccc3ccccc3n2)C(=O)c2sc3ccccc3c2Cl)c(C)c1 next
Result: false (0)

Ask: Also COc1ccc(C)c(N(CC(=O)c2cccs2)C(=O)c2sc3ccccc3c2Cl)c1 ?
Result: false (0)

Ask: Same for Cc1cccc2sc(C3=NCCc4c(F)cccc43)c(Cl)c12
Result: true (1)

Ask: Next record, please: COc1cc2c(cc1OC)C(c1sc3cc(OC)c(OC)cc3c1Cl)=NCC2
Result: false (0)

Ask: Can you handle Fc1cccc2c1CCN=C2c1sc2ccccc2c1Cl next?
Result: false (0)

Ask: Note, next up: COc1ccc(C)c(N(Cc2cccc(C)n2)C(=O)c2sc3ccccc3c2Cl)c1
Result: false (0)

Ask: Moving on to the next compound: COc1cc2ccnc(-c3sc4ccccc4c3Cl)c2cc1OC
Result: true (1)

Ask: Moving on to COc1ccc2c(c1)C(c1sc3ccccc3c1Cl)NCC2 (stereo not shown)
Result: true (1)

Ask: What would you report for Cc1ccc2c(c1)CCCN2C(=O)c1sc2cc(F)ccc2c1Cl ?
Result: false (0)

Ask: What do you have for COc1cccc2c1CCNC2c1sc2ccccc2c1Cl (stereo not shown) ?
Result: false (0)

Ask: What would you report for COc1cc(OC)c2c(C)c(Cc3cccc(Cl)c3)c(=O)[nH]c2c1 ?
Result: false (0)

Ask: What about COc1cc2c(cc1OC)C(c1sc3cccc(C)c3c1Cl)NCC2 (stereo not shown) ?
Result: true (1)

Ask: And then CCCc1c(Cc2cccc(Cl)c2)c(=O)[nH]c2cc(O)cc(O)c12 , what is it?
Result: false (0)

Ask: Query Cc1c(Cc2ccc(Cl)c(Cl)c2)c(=O)oc2cc(O)cc(O)c12 next
Result: false (0)

Ask: Would you mind doing COc1ccc2c(Cl)c(C3NCCc4cc(OC)c(OC)cc43)sc2c1 (stereo not shown) as well?
Result: true (1)

Ask: Ok, now Cc1ccc(N(Cc2ccccn2)C(=O)c2sc3ccccc3c2Cl)c(C)c1
Result: false (0)

Ask: // same read-out, input: Cc1ccc2c(c1)CCCN2C(=O)c1sc2cc(C(F)(F)F)ccc2c1Cl
Result: false (0)

Ask: Repeat with Cc1ccc(N(Cc2ccncc2)C(=O)c2sc3ccccc3c2Cl)c(C)c1
Result: false (0)

Ask: Again, but for COc1ccc2c(c1)C(c1sc3cccc(C)c3c1Cl)NCC2 (stereo not shown)
Result: true (1)

Ask: Note, next up: O=C(NC1CCCc2ccccc21)c1sc2ccccc2c1Cl (stereo not shown)
Result: true (1)

Ask: What would you report for COc1cc(OC)c2c(C)c(Cc3ccc(F)cc3)c(=O)[nH]c2c1 ?
Result: true (1)

Ask: Similarly, Cc1ccc2c(c1)CCNC2c1sc2ccccc2c1Cl (stereo not shown) ?
Result: true (1)

Ask: Can you handle COc1cccc2c1CCN=C2c1sc2ccccc2c1Cl next?
Result: true (1)

Ask: Would you mind doing Fc1cccc2c1CCNC2c1sc2ccccc2c1Cl (stereo not shown) as well?
Result: false (0)

Ask: One more compound: Cc1c(Cc2c(Cl)cccc2Cl)c(=O)[nH]c2cc(O)cc(O)c12
Result: false (0)

Ask: Please give the result for Cc1ccc2c(c1)CCCN2C(=O)c1sc2ccccc2c1F too.
Result: false (0)

* * *

Biological target: TRPM7 (Mus musculus, UniProt Q923J1)
Construct: expressed in transfected cells; host or cells: HEK-293 tSA (HEK-293T) cells, transient transfection with Lipofectamine 2000
Sequence (Q923J1 whole entry): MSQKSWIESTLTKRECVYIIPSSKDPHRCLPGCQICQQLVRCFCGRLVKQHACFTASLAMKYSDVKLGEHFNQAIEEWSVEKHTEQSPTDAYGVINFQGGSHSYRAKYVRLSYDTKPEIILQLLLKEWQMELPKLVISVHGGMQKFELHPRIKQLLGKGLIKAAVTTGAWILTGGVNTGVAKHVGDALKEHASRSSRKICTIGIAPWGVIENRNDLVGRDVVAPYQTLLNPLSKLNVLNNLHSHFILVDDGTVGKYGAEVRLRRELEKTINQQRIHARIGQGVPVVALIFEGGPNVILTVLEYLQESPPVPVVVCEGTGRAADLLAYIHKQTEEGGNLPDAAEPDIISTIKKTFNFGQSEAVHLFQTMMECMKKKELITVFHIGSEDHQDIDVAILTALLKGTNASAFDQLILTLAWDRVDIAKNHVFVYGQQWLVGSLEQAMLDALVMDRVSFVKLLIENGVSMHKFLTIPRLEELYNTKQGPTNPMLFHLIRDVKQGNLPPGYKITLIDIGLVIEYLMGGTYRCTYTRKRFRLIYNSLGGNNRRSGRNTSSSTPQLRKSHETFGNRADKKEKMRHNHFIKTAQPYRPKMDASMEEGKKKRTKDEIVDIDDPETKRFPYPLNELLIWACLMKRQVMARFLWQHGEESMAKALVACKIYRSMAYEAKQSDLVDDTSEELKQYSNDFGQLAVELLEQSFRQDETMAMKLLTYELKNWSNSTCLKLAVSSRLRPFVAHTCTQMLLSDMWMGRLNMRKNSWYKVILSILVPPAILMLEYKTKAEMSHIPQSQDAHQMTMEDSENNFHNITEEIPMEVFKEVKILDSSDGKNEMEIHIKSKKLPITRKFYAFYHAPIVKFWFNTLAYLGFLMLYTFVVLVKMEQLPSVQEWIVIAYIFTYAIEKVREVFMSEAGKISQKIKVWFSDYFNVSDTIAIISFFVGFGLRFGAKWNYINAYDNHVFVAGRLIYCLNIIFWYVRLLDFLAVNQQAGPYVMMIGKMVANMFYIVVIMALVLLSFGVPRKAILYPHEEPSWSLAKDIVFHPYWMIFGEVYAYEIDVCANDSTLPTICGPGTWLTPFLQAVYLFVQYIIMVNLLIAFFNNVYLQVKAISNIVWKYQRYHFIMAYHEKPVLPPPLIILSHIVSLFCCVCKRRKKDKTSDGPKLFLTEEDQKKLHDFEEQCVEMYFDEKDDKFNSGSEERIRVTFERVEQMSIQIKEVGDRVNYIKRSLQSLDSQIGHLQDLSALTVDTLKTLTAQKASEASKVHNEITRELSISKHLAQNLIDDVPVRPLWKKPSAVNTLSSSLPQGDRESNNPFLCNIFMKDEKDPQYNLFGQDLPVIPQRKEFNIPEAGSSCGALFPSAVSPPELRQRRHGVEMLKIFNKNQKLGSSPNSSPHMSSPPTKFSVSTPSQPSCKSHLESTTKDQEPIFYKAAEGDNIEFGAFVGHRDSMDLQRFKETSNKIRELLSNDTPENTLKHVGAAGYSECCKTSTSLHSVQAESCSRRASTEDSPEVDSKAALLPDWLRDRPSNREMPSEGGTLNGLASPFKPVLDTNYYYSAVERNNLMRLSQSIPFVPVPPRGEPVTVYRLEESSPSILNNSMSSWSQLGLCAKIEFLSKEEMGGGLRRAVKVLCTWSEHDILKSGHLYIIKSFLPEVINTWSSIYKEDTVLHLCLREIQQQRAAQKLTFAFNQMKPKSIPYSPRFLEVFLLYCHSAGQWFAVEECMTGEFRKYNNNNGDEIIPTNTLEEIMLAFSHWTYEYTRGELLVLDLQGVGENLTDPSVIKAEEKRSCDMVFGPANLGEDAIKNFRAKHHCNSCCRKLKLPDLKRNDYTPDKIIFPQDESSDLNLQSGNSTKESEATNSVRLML
Assay: PI uptake cell death assay in TRPM7-expressing HEK-293 cells (type of assay from Example 1)
Assay type: cell-based, murine
Settings: Table X
Procedure: The TRPM7 channel provides a pathway for mono- and divalent cations into the cell, and is unique in that it contains a functional C-terminal α-kinase domain. […] Alternatively, this activation can also be measured using radiolabelled Ca2+ (^45Ca^2+) as described previously by Sattler et al. (Sattler et al., 1998) and Aarts et al. (Aarts et al., 2003). […] Cell death, as assessed by PI uptake, was examined at the end of the 2 hour calcium uptake assay. […]
I'd be grateful if you could share measured IC50 for these entries.
State the answer as a number, implicitly in µM.

Ask: Which IC50 is listed for Cc1ccc(N(Cc2cccnc2)C(=O)c2sc3ccccc3c2Cl)c(C)c1 [Compound 106] ?
Result: 1.2

Ask: Likewise for Cc1c(Cc2c(F)cccc2Cl)c(=O)[nH]c2cc(O)cc(O)c12 [Compound 133] ?
Result: 3.31

Ask: Another compound: COc1cccc2c1CCNC2c1sc2ccccc2c1Cl (centres unmarked) [Compound 121]
Result: 1.4

Ask: Another compound to check: COc1cc2c(cc1OC)C(c1sc3cccc(C)c3c1Cl)NCC2 (centres unmarked) [Compound 73]
Result: 0.18

Ask: COc1ccc(C)c(N(Cc2ccc3ccccc3n2)C(=O)c2sc3ccccc3c2Cl)c1 [Compound 105] , same question.
Result: 0.86

Ask: Please do the same for Cc1c(Cc2ccc(Cl)c(Cl)c2)c(=O)oc2cc(O)cc(O)c12 [Compound 131] as well.
Result: 3.42

Ask: Please do the same for COc1cc2ccnc(-c3sc4ccccc4c3Cl)c2cc1OC [Compound 108] as well.
Result: 1.09

Ask: Proceed to Clc1cccc2c1CCNC2c1sc2ccccc2c1Cl (centres unmarked) [Compound 125]
Result: 4.69

Ask: Please give the result for Cc1c(Cc2cccc(Cl)c2)c(=O)oc2cc(O)cc(O)c12 [Compound 77] too.
Result: 1.99

Ask: Repeat for the following compound: COc1ccc2c(c1)C(c1sc3cccc(C)c3c1Cl)NCC2 (centres unmarked) [Compound 128]
Result: 0.43

Ask: Likewise for COc1cc(OC)c2c(C)c(Cc3ccc(Cl)cc3)c(=O)[nH]c2c1 [Compound 93] ?
Result: 0.21

Ask: What would you report for COc1cc(OC)c2c(C)c(Cc3cccc(Cl)c3)c(=O)[nH]c2c1 [Compound 94] ?
Result: 0.65

Ask: Now this one: Cc1ccc(N(Cc2ccncc2)C(=O)c2sc3ccccc3c2Cl)c(C)c1 [Compound 98]
Result: 2.53

Ask: For Cc1ccc2c(c1)CCN(C)C2c1sc2ccccc2c1Cl (centres unmarked) [Compound 55] then?
Result: 2.14

Ask: Item: COc1cc(OC)c2c(C)c(Cc3ccccc3)c(=O)[nH]c2c1 [Compound 56]
Result: 0.43

Ask: Entry Cc1cccc2sc(C3NCCc4c(F)cccc43)c(Cl)c12 (centres unmarked) [Compound 127] please
Result: 0.93

Ask: And then Cc1cccc2sc(C3=NCCc4c(F)cccc43)c(Cl)c12 [Compound 117] , what is it?
Result: 1.67

Ask: Also need CCN1CCc2cc(OC)c(OC)cc2C1c1sc2ccccc2c1Cl (centres unmarked) [Compound 129] , thanks.
Result: 2.23

Ask: Cc1ccc(N(Cc2ccc3ccccc3n2)C(=O)c2sc3ccccc3c2Cl)c(C)c1 [Compound 104] ?
Result: 0.98

Ask: Next entry: COc1ccc(C)c(N(Cc2cccc(C)n2)C(=O)c2sc3ccccc3c2Cl)c1 [Compound 102]
Result: 1.61

Ask: Next entry: Cc1ccc2c(c1)CCCN2C(=O)c1sc2ccccc2c1F [Compound 45]
Result: 4.66

Ask: Same read-out for Cc1c(Cc2cccc(Cl)c2)c(=O)[nH]c2cc(O)cc(O)c12 [Compound 140] ?
Result: 11.1

Ask: Same for COc1cccc2c1CCN=C2c1sc2ccccc2c1Cl [Compound 110]
Result: 1.38

Hello, the source for this data is patent US9334256B2, in case you need it.
